- Test summary: DPPH radical scavenging assay
- Measurement parameters: mean ± SD, three independent experiments
Result type: EC50 (µM)

INSERT INTO measurements (compound, result_type, meas_value) VALUES
  ('Cc1c(C)c2c(c(C)c1O)CCC(C)(C(=O)O)O2 (stereo not drawn) [Trolox, reference compound]', 'EC50', 25.3),
  ('Cc1cccc2c1nc(-c1cc(O)c(O)c(O)c1)n2Cc1cc(O)c(O)c(O)c1 [8s]', 'EC50', 7.4),
  ('Cc1cccc2c1nc(-c1cc(O)ccc1O)n2Cc1cc(O)ccc1O [8r]', 'EC50', 11.4);

###

- Target desc: α-glucosidase (Saccharomyces cerevisiae, UniProt P53341)
- Sequence (P53341 whole entry): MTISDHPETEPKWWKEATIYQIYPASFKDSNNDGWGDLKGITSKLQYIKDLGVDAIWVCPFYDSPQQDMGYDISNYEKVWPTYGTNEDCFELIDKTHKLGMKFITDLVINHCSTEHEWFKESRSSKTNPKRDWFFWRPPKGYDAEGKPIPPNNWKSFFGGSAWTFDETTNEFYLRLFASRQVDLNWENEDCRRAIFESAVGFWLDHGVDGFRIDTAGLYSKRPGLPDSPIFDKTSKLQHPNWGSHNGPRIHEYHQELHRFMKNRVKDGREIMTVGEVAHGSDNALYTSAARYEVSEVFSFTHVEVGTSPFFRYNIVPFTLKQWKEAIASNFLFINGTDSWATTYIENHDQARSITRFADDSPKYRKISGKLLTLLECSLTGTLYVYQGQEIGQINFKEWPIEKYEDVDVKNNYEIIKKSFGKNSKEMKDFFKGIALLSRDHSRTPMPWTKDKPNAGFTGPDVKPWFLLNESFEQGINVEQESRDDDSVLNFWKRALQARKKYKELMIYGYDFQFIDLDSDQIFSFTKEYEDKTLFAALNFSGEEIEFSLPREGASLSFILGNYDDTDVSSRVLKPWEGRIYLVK
- Test summary: biochemical
Result type: IC50

INSERT INTO results (molecule, meas_value) VALUES
  ('Cc1cccc2c1nc(-c1ccc(Cl)c([N+](=O)[O-])c1)n2Cc1ccc(Cl)c([N+](=O)[O-])c1 [8k]', '7.1 µM');

###

- Target desc: UniProt:P53341
- Test summary: biochemical
- Measurement parameters: 0.25 h, pH 6.8; 50 μM; mean ± SD, three independent assays; read-out: α-Glucosidase % inib. at 50 μM
Result type: inhibition at 50 µM (%)

INSERT INTO results (sample_smiles, target_desc, measure_unit, meas_value) VALUES
  ('O=[N+]([O-])c1cc(Cn2c(-c3ccc(Cl)c([N+](=O)[O-])c3)nc3ccccc32)ccc1Cl', 'UniProt:P53341', '%', 9.2),
  ('Cc1cccc2c1nc(-c1cc(O)ccc1O)n2Cc1cc(O)ccc1O', 'UniProt:P53341', '%', 94.2),
  ('O=[N+]([O-])c1cc(Cn2c(-c3ccc(Cl)c([N+](=O)[O-])c3)nc3cc(Cl)ccc32)ccc1Cl', 'UniProt:P53341', '%', 17.3),
  ('Cc1cccc2c1nc(-c1ccc(Br)c(Br)c1)n2Cc1ccc(Br)c(Br)c1', 'UniProt:P53341', '%', 38.2),
  ('Cc1cccc2c1nc(-c1ccc(O)c([N+](=O)[O-])c1)n2Cc1ccc(O)c([N+](=O)[O-])c1', 'UniProt:P53341', '%', 3.7),
  ('Cc1cccc2c1nc(-c1cc(O)c(O)c(O)c1)n2Cc1cc(O)c(O)c(O)c1', 'UniProt:P53341', '%', 97.5),
  ('COc1ccccc1Cn1c(-c2ccccc2OC)nc2c(C)cccc21', 'UniProt:P53341', '%', 35.3);

###

- Test summary: ABTS radical scavenging assay
- Measurement parameters: mean ± SD, three independent experiments
Result type: EC50 (µM)

INSERT INTO measurements (molecule, result_type, meas_value) VALUES
  ('Cc1c(C)c2c(c(C)c1O)CCC(C)(C(=O)O)O2 (stereo not drawn) [Trolox, reference compound]', 'EC50', 24.4),
  ('Cc1cccc2c1nc(-c1cc(O)ccc1O)n2Cc1cc(O)ccc1O', 'EC50', 13),
  ('Cc1cccc2c1nc(-c1cc(O)c(O)c(O)c1)n2Cc1cc(O)c(O)c(O)c1', 'EC50', 4.6);

###

# key: entry, value: inhibition at 50 µM
- Target desc: α-amylase from porcine pancreas (Sus scrofa, UniProt P00690)
- Construct: 40 μL of α-amylase from porcine pancreas (1 mg/mL) was used; from tissue; host or cells: porcine pancreas
- Sequence (P00690 16-511): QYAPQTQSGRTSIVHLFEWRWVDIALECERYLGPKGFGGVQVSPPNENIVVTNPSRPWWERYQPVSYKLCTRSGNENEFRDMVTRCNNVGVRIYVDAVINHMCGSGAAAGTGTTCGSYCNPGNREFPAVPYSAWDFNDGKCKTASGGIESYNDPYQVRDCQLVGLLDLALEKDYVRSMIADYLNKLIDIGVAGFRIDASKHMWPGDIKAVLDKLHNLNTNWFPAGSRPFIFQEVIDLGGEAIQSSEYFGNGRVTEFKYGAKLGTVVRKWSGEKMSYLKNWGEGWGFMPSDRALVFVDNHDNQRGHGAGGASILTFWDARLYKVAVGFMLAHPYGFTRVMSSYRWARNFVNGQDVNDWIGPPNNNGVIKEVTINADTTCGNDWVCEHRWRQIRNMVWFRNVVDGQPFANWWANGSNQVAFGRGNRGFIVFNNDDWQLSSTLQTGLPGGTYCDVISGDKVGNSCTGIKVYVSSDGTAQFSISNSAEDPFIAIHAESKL
- Test summary: α-amylase inhibition assay (CNPG3 substrate)
- Assay type: biochemical
- Measurement parameters: 10 min, pH 7, mean ± SD, three independent assays, read-out: α-Amylase % inib. at 50 μM
Result type: inhibition at 50 µM (%)

INSERT INTO measurements (molecule, meas_value) VALUES
  ('Cc1cccc2c1nc(-c1ccc(Br)c(Br)c1)n2Cc1ccc(Br)c(Br)c1 [C00036]', 35.7),
  ('O=[N+]([O-])c1cc(Cn2c(-c3ccc(Cl)c([N+](=O)[O-])c3)nc3ccccc32)ccc1Cl [C00031]', 10.2),
  ('COc1ccccc1Cn1c(-c2ccccc2OC)nc2c(C)cccc21 [C00034]', 3.2),
  ('O=[N+]([O-])c1cc(Cn2c(-c3ccc(Cl)c([N+](=O)[O-])c3)nc3cc(Cl)ccc32)ccc1Cl [C00033]', 15.8),
  ('Cc1cccc2c1nc(-c1ccc(Cl)c([N+](=O)[O-])c1)n2Cc1ccc(Cl)c([N+](=O)[O-])c1 [C00032]', 14),
  ('Cc1cccc2c1nc(-c1ccc(O)c([N+](=O)[O-])c1)n2Cc1ccc(O)c([N+](=O)[O-])c1 [C00035]', 4.3),
  ('Cc1cccc2c1nc(-c1cc(O)ccc1O)n2Cc1cc(O)ccc1O [C00037]', 1.3);
